Molecular target: T1, 4H_APH
T1 chain: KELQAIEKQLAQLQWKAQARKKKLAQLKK
Assay: two-hybrid library CCmax;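 note: natural log of median RNA to DNA barcode read ratio; higher means stronger binding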
Conditions: mean of both orientations
Measured Property: interaction score

Below, 10 binders whose answers are already recorded.
Qu. Let me know recorded interaction score for DEIAALEAKNAALEAENAALEAKIAALKG [4H406-AA] , thanks.
Ans. -1.29

Qu. Note down interaction score recorded for DKIAALKAKIAALKAEIAALEAKNAALKG [4H2888-AA]
Ans. -2.17

Qu. Identify measured interaction score associated with DEIAALEAKIAALKAENAALKAENAALEG [4H347-AA]
Ans. -1.79

Qu. Give the measured interaction score for DKIAALKAKIAALKAKNAALEAENAALEG [4H2931-AA]
Ans. -1.87

Qu. For the binder DENAALKAEIAALKAKNAALEAEIAALKG [4H1650-AA] , give its reported interaction score.
Ans. -1.42

Qu. Tell me its interaction score given DKIAALKAKNAALKAEIAALKAENAALKG [4H3020-AA] as the entry.
Ans. -2.43

Qu. Output interaction score of DKNAALKAEIAALKAEIAALEAENAALEG [4H3651-AA]
Ans. -1.76

Qu. Fill in reported interaction score for this entry: DENAALEAEIAALKAKIAALKAKNAALKG [4H1136-AA]
Ans. -1.64

Qu. Please give the documented interaction score of DKIAALKAENAALEAENAALEAEIAALEG [4H2705-AA]
Ans. -1.6

Qu. Using the record for DKIAALKAKIAALKAENAALEAEIAALKG [4H2898-AA] , state its measured interaction score.
Ans. -1.54

1 = DENAALEAKIAALKAKIAALKAEIAALEG [4H1385-AA]
2 = DENAALEAENAALEAKIAALKAEIAALEG [4H1193-AA]
3 = DKNAALKAEIAALEAEIAALEAKIAALKG [4H3590-AA]
Qu. Given 3 binders, produce a descending ranking by interaction score. A complete answer lists every label in the requested sequence.
Ans. 3, 1, 2
(3: -0.247, 1: -1.13, 2: -1.85)

The values you see were collected from paper PMC10397247.
